- testedSystem: cIAP2-BIR3 (Homo sapiens (Human))
- Sequence (Q13489 238-349): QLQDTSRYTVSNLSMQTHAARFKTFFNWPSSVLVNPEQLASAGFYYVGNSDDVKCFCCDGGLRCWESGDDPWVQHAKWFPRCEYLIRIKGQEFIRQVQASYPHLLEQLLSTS
- testMethodNotes: BIR binding assay (FRET competition), cIAP2 BIR3
- conditionLabel: fold separation (FS) for cIAP2
propertyMeasured: cIAP2 BIR3 vs BIR2 separation window

INSERT INTO assay_data (structure, experimentalresult) VALUES
  ('C[C@@H]1CN(CC(=O)N2CC(C)(C)c3[nH]c(=O)c(Cc4ccc(F)cc4)cc32)[C@@H](CN2CCO[C@H](COc3ccc(Oc4ccc(OC[C@@H]5CN(C[C@H]6CN[C@H](C)CN6CC(=O)N6CC(C)(C)c7[nH]c(=O)c(Cc8ccc(F)cc8)cc76)CCO5)cc4)cc3)C2)CN1', '++++ (FS>10,000)'),
  ('C[C@@H]1CN(CC(=O)N2CC(C)(C)c3[nH]c(=O)c(Oc4ccc(F)cc4)cc32)[C@@H](CN2CCO[C@H](C(=O)NCc3ccc(CNC(=O)[C@@H]4CN(C[C@H]5CN[C@H](C)CN5CC(=O)N5CC(C)(C)c6[nH]c(=O)c(Oc7ccc(F)cc7)cc65)CCO4)cc3)C2)CN1', '++++ (FS>10,000)'),
  ('C[C@@H]1CN(CC(=O)N2CC(C)(C)c3[nH]c(=O)c(Cc4ccc(F)cc4)cc32)[C@@H](CN2CCO[C@H](C(=O)NCCCCCCCCCCNC(=O)[C@@H]3CN(C[C@H]4CN[C@H](C)CN4CC(=O)N4CC(C)(C)c5[nH]c(=O)c(Cc6ccc(F)cc6)cc54)CCO3)C2)CN1', '+++ (10,000>FS>1,000)'),
  ('C[C@@H]1CN(CC(=O)N2CC(C)(C)c3[nH]c(=O)c(Cc4ccc(Cl)cc4C#N)cc32)[C@@H](CN2CCO[C@H](COc3cccc(OC[C@@H]4CN(C[C@H]5CN[C@H](C)CN5CC(=O)N5CC(C)(C)c6[nH]c(=O)c(Cc7ccc(Cl)cc7C#N)cc65)CCO4)c3)C2)CN1', '+++ (10,000>FS>1,000)');

----------
- testedSystem: XIAP-BIR3 (Homo sapiens (Human), UniProt P98170)
- Sequence (P98170 241-356): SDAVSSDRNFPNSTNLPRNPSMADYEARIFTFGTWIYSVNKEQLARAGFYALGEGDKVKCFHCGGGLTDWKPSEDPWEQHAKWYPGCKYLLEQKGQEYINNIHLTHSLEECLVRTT
- testMethodNotes: BIR binding assay (FRET competition), XIAP BIR3
- Method: The BIR domain binding assays are FRET based competition assays that utilize His-tagged versions of each of the BIR2 and BIR3 domains from cIAP1, cIAP2, and XIAP (each domain assayed separately) each at a custom optimal concentration and a probe, 200 nM SMAC/DIABLO peptide […] labelled with AlexaFluor647 (part #crb 1110326h, Discovery Peptides). The assay is conducted in 50 mM HEPES, […], 1 mM CHAPS, 5% Glycerol, 1 mM DTT, in dI water with a final pH of 7.4 and final volume of 20 uL. […]
pIC50: −log10 of the molar value.
propertyMeasured: pIC50

INSERT INTO assay_data (molecule, testedsystem, experimentalresult) VALUES
  ('C[C@@H]1CN(CC(=O)N2CC(C)(C)c3[nH]c(=O)c(Cc4ccc(Cl)cc4Cl)cc32)[C@@H](CN2CCO[C@H](COc3cccc(OC[C@@H]4CN(C[C@H]5CN[C@H](C)CN5CC(=O)N5CC(C)(C)c6[nH]c(=O)c(Cc7ccc(Cl)cc7Cl)cc65)CCO4)c3)C2)CN1 [Compound 187]', 'XIAP-BIR3 (Homo sapiens (Human), UniProt P98170)', '6.30 to 7.50'),
  ('C[C@@H]1CN(CC(=O)N2CC(C)(C)c3[nH]c(=O)c(Cc4ccc(F)cc4)cc32)[C@@H](CN2CCC(CNC(=O)c3ccc(C(=O)NCC4CCN(C[C@H]5CN[C@H](C)CN5CC(=O)N5CC(C)(C)c6[nH]c(=O)c(Cc7ccc(F)cc7)cc65)CC4)cc3)CC2)CN1 [Example 101]', 'XIAP-BIR3 (Homo sapiens (Human), UniProt P98170)', '7.80 to 8.10'),
  ('C[C@@H]1CN(CC(=O)N2CC(C)(C)c3[nH]c(=O)c(Cc4ccc(F)cc4)cc32)[C@@H](CN2CCC[C@H](NC(=O)CCCCCCCCCCCCC(=O)N[C@H]3CCCN(C[C@H]4CN[C@H](C)CN4CC(=O)N4CC(C)(C)c5[nH]c(=O)c(Cc6ccc(F)cc6)cc54)C3)C2)CN1 [Example 40]', 'XIAP-BIR3 (Homo sapiens (Human), UniProt P98170)', '6.30 to 7.50'),
  ('C[C@@H]1CN(CC(=O)N2CC(C)(C)c3[nH]c(=O)c(Cc4ccc(Br)cc4)cc32)[C@@H](CN2CCO[C@H](C(=O)NCc3ccc(CNC(=O)[C@@H]4CN(C[C@H]5CN[C@H](C)CN5CC(=O)N5CC(C)(C)c6[nH]c(=O)c(Cc7ccc(Br)cc7)cc65)CCO4)cc3)C2)CN1 [Compound 162]', 'XIAP-BIR3 (Homo sapiens (Human), UniProt P98170)', '7.50 to 7.80'),
  ('C[C@@H]1CN(CC(=O)N2CC(C)(C)c3ncc(Cc4ccccc4)cc32)[C@@H](CN2CCO[C@H](COc3cccc(OC[C@@H]4CN(C[C@H]5CN[C@H](C)CN5CC(=O)N5CC(C)(C)c6ncc(Cc7ccccc7)cc65)CCO4)c3)C2)CN1 [Compound 150]', 'XIAP-BIR3 (Homo sapiens (Human), UniProt P98170)', '7.50 to 7.80'),
  ('C[C@@H]1CN(CC(=O)N2CC(C)(C)c3[nH]c(=O)c(Cc4ccc(F)cc4)cc32)[C@@H](CN2CCN(CCc3cn(CCCCC(=O)N4CCN(C[C@H]5CN[C@H](C)CN5CC(=O)N5CC(C)(C)c6[nH]c(=O)c(Cc7ccc(F)cc7)cc65)[C@H](C)C4)nn3)C[C@H]2C)CN1 [Compound 158]', 'XIAP-BIR3 (Homo sapiens (Human), UniProt P98170)', '7.80 to 8.10');
